SYSTEM_UNDER_TEST: UniProt O15111
Sequence (O15111 whole entry): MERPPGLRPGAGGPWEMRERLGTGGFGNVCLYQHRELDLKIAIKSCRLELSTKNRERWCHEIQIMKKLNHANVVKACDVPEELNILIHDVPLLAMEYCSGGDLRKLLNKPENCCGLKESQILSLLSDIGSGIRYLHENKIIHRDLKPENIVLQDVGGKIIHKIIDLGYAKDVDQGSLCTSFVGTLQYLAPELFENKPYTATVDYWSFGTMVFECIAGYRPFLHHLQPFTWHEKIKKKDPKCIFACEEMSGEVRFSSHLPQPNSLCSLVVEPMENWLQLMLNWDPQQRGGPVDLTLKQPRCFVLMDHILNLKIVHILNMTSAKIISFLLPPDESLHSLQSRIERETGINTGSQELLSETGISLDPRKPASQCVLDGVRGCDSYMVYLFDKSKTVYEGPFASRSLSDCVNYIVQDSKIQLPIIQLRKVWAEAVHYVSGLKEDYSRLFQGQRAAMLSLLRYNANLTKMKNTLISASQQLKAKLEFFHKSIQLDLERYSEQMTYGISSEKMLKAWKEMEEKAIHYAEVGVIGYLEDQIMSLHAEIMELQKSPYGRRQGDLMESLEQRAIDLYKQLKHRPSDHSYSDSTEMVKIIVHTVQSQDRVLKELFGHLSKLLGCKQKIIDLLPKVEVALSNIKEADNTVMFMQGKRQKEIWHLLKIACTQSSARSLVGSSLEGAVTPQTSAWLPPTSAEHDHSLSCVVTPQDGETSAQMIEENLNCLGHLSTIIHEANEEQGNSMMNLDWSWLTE
EXPERIMENT_SUMMARY: KiNativ assay
Type: binding
CONDITION_NOTES: H929 live cell, read-out: inhibition (10 μM)
Listed next: entries and their corresponding inhibition at 10 µM.
The reply should contain only the number, in %.

Below: 5 compounds and their reported inhibition at 10 µM.
Nc1ncc(-c2ccc(NS(=O)(=O)C3CC3)cc2OC2CCCCC2)cc1-c1ccc2c(c1)CCNC2=O :: -34.3
Nc1ncc(-c2ccc(NS(=O)(=O)C3CC3)cc2F)cc1-c1ccc2c(c1)CCNC2=O :: -17.3
Nc1ncc(-c2cccc3ncsc23)cc1-c1ccc2c(c1)CCNC2=O :: 2.6
Nc1ncc(-c2cccc([N+](=O)[O-])c2F)cc1-c1ccc2c(c1)CCNC2=O :: -18.4
CN(C1CC1)S(=O)(=O)c1ccc(-c2cnc(N)c(-c3ccc4c(c3)CCNC4=O)c2)c(F)c1 :: 6.4

Consider the record given below.
Dear colleague, I am looking for the recorded inhibition at 10 µM of the following compound: COc1cc(NS(=O)(=O)C2CC2)ccc1-c1cnc(N)c(-c2ccc3c(c2)CCNC3=O)c1
-1.9
